# Tested on: CAKI-1 renal
# method-notes: NCI tumour cell line growth inhibition, 48 h
readout-kind: TGI

# count of solved cases: 4
{"compound": "O=S(=O)(O)c1cc(O)c(N=NC2S(=O)(=O)OCCOS2(=O)=O)c2ccccc12", "result": "> 100 µM"}
{"compound": "CCN(CC)C(=O)c1cccc2c(OC)ccc(OC)c12", "result": "> 100 µM"}
{"compound": "O=c1c2ccccc2c(=O)n2n1-c1cccc(c1)CSSCc1cccc-2c1", "result": "> 100 µM"}
{"compound": "O=C1c2cccnc2S(=O)(=O)N1c1ccc(Br)cc1", "result": "> 100 µM"}

Any idea what its TGI is? The compound is `COc1cc(-c2csc(NC(=O)Nc3ccc(Cl)cc3)n2)cc(OC)c1OC`
11.1 µM

Any idea what its TGI is? The compound is `O=S1(=O)[C@H](c2ccccc2)c2c(-c3ccccc3)sc(-c3ccccc3)c2[C@@H]1c1ccccc1`
> 100 µM

Any idea what its TGI is? The compound is `Cc1cnoc1/N=C1\C=C(Nc2oncc2C)C(=O)c2ccccc21`
> 100 µM

Any idea what its TGI is? The compound is Cc1ccccc1NC(=O)C(=O)C(C1OC(=O)c2ccccc21)[N+](=O)[O-] (stereo not given)
> 100 µM

Any idea what its TGI is? The compound is `c1ccc(CCCN2C3CCC2CN(CCOC(c2ccccc2)c2ccccc2)C3)cc1`
25.7 µM

Any idea what its TGI is? The compound is `c1ccc2[nH]c(-c3ccc(Nc4nc(N5CCCC5)nc5[nH]ncc45)cc3)nc2c1`
3.48 µM
